# System: Plasmodium falciparum
# Test summary: Plasmodium falciparum sporozoite viability assay
# Type: functional, organism-based
Metric: pIC50

stdin: Fill in the blank: the reported pIC50 of O[C@H]1CN(CCOc2ccc(F)cc2)CC[C@@]12CCCO2 is ____.
stdout: 5.66

stdin: Fill in the blank: the reported pIC50 of CSc1cc2c(cc1NC(=O)NCCn1ccnc1)OCCO2 is ____.
stdout: 6.776

stdin: Fill in the blank: the reported pIC50 of Cc1cn2c(n1)C(CNCC1=Cc3cc(Cl)ccc3OC1)CCC2 (stereo unspecified) is ____.
stdout: 5.932

stdin: Fill in the blank: the reported pIC50 of CC(C)(C)n1ncc2c(=O)n(CC(=O)NCc3ccccc3Cl)cnc21 is ____.
stdout: 7.103

stdin: Fill in the blank: the reported pIC50 of Cc1cccc(C(=O)Nc2ccc(OC3CCN(C)CC3)cc2)c1 is ____.
stdout: 7.031
